Molecular target: Recombinant human his-tagged IGF R extracellular domain protein (human) (UniProt P08069)
Assay: SPR, Ab captured via anti-huIgG Fc, dissociation at pH 6
pKd: −log10 of the molar value.
Reported pKd values for a set of binders
measurement.type: pKd

>>> measured_number("VRDN-02019 (antibody, V domains shown) VH: QVQLQESGPGLVKPSETLSLTCTVSGYSITGGYLWNWIRQPPGKGLEWIGYISYDGTHNYKPSLKDRVTISRDTSKNQFSLKLSSVTAADTAVYYCARYGRVFFDYWGQGTLVTVSS VL: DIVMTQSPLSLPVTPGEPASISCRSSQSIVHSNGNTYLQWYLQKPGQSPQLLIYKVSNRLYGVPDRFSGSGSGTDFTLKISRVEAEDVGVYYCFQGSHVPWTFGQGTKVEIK")
8.93
>>> measured_number("VRDN-02057 (antibody, V domains shown) VH: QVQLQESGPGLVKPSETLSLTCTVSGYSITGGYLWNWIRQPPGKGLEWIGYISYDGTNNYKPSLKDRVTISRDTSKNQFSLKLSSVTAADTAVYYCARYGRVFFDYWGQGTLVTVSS VL: DIVMTQSPLSLPVTPGEPASISCRSSQSIVHSNGNTYLQWYLQKPGQSPQLLIYKVSNRLYGVPDRFSGSGSGTDFTLKISRVEAEDVGVYYCFQGSHVPHTFGQGTKVEIK")
8.85
>>> measured_number("VRDN-02065 (antibody, V domains shown) VH: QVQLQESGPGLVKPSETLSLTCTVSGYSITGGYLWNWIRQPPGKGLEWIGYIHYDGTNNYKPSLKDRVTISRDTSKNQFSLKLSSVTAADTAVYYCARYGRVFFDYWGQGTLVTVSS VL: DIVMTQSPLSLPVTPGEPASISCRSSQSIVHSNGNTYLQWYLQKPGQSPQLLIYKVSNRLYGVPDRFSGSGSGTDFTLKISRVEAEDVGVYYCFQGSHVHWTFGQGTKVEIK")
9.63
>>> measured_number("VRDN-02041 (antibody, V domains shown) VH: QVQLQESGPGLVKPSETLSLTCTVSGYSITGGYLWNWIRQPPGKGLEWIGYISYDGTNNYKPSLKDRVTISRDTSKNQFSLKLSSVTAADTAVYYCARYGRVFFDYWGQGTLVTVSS VL: DIVMTQSPLSLPVTPGEPASISCRSSQSIVHSNGNTHLQWYLQKPGQSPQLLIYKVSNRLYGVPDRFSGSGSGTDFTLKISRVEAEDVGVYYCFQGSHVPWTFGQGTKVEIK")
8.94
>>> measured_number("VRDN-02046 (antibody, V domains shown) VH: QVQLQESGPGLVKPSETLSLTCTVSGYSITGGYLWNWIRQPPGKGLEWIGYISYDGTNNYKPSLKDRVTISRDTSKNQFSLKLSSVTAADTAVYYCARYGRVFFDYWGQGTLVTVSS VL: DIVMTQSPLSLPVTPGEPASISCRSSQSIVHSNGNTYLQWYLQKPGQSPQLLIYKVHNRLYGVPDRFSGSGSGTDFTLKISRVEAEDVGVYYCFQGSHVPWTFGQGTKVEIK")
8.89
>>> measured_number("VRDN-02042 (antibody, V domains shown) VH: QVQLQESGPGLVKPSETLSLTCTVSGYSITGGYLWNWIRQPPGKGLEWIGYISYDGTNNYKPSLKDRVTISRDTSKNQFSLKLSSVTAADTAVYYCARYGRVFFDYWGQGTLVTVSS VL: DIVMTQSPLSLPVTPGEPASISCRSSQSIVHSNGNTYHQWYLQKPGQSPQLLIYKVSNRLYGVPDRFSGSGSGTDFTLKISRVEAEDVGVYYCFQGSHVPWTFGQGTKVEIK")
8.97
>>> measured_number("VRDN-02034 (antibody, V domains shown) VH: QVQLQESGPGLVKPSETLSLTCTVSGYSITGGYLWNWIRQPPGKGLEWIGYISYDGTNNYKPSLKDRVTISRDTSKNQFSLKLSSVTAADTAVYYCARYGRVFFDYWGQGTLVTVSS VL: DIVMTQSPLSLPVTPGEPASISCRSSQSHVHSNGNTYLQWYLQKPGQSPQLLIYKVSNRLYGVPDRFSGSGSGTDFTLKISRVEAEDVGVYYCFQGSHVPWTFGQGTKVEIK")
8.90
>>> measured_number("VRDN-02006 (antibody, V domains shown) VH: QVQLQESGPGLVKPSETLSLTCTVSGYSITHGYLWNWIRQPPGKGLEWIGYISYDGTNNYKPSLKDRVTISRDTSKNQFSLKLSSVTAADTAVYYCARYGRVFFDYWGQGTLVTVSS VL: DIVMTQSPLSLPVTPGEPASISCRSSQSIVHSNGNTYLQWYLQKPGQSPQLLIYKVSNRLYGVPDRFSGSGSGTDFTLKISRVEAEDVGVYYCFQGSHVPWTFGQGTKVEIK")
8.96
>>> measured_number("VRDN-02010 (antibody, V domains shown) VH: QVQLQESGPGLVKPSETLSLTCTVSGYSITGGYLHNWIRQPPGKGLEWIGYISYDGTNNYKPSLKDRVTISRDTSKNQFSLKLSSVTAADTAVYYCARYGRVFFDYWGQGTLVTVSS VL: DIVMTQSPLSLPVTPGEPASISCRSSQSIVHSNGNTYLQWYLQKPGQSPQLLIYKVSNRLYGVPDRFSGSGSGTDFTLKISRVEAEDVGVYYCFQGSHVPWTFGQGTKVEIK")
8.12
>>> measured_number("VRDN-02032 (antibody, V domains shown) VH: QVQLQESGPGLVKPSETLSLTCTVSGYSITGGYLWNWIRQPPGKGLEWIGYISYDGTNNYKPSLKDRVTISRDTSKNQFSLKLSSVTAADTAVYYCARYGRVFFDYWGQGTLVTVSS VL: DIVMTQSPLSLPVTPGEPASISCRSSHSIVHSNGNTYLQWYLQKPGQSPQLLIYKVSNRLYGVPDRFSGSGSGTDFTLKISRVEAEDVGVYYCFQGSHVPWTFGQGTKVEIK")
9.00
